Hey, just so you know, these numbers are from patent US5523314A.

System: blood glucose level
Assay: Hypoglycemic activity in obese diabetic mice (Table 1)
Type: in vivo, male viable yellow obese-diabetic mice
Details: Mus musculus, ip, 2 h, 50 mg/kg, intraperitoneal, 2 hrs; read-out: Percent of Initial Blood Glucose Level After 2 hrs.
Procedure: The hypoglycemic activity of the compounds of the present invention was determined by testing the efficacy of the compounds in vivo in male viable yellow obese-diabetic mice. The test procedure is described in detail below. Test formulations were prepared by dissolving the test compound in a saline solution containing 2% Emulphor (a polyoxyethylated vegetable oil surfactant from GAP Corp.) to provide the dose level desired. […]
Metric name: response vs control in vivo at 50 mg/kg (%)

structure=O=C1NC(=S)SC1=Cc1ccccc1-c1ccccc1 value=84
structure=O=C1NC(=S)SC1=Cc1ccc(F)cc1 value=94
structure=CC(C)(C)c1cc(C=C2SC(=S)NC2=O)cc(C(C)(C)C)c1O value=83
structure=O=C1NC(=S)SC1=Cc1cccc([N+](=O)[O-])c1 value=89
structure=O=C1NC(=S)SC1=Cc1ccc(-c2ccccc2)cc1 value=87
structure=COc1ccc(C=C2SC(=S)NC2=O)cc1C value=93
structure=O=C1NC(=S)SC1=Cc1cccc(Cl)c1 value=74
structure=CCCCCOc1ccc(C=C2SC(=S)NC2=O)cc1 value=99
structure=COc1cc(C=C2SC(=S)NC2=O)cc(OC)c1OC value=88
structure=COc1ccc(C=C2SC(=S)NC2=O)cc1 value=89
structure=O=C1NC(=S)SC1=Cc1cccc(O)c1 value=84

###

Molecular target: Human liver cathepsin D (Homo sapiens, UniProt P07339)
Construct: purchased Athens Research and Technology, Athens, Ga; host or cells: human liver
Sequence (P07339 169-412 limits assumed): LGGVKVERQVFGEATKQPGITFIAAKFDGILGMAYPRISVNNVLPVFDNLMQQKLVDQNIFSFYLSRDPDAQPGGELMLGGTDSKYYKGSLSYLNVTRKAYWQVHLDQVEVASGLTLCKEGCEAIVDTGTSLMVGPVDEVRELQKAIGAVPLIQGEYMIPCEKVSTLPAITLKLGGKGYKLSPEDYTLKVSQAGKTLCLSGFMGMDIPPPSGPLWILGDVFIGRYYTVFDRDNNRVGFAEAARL
Sequence (P07339 65-161 limits assumed): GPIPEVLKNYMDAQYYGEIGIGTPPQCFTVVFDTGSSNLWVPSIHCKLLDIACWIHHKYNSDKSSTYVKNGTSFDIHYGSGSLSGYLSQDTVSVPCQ
Assay: Cathepsin D inhibition, fluorometric assay (Tables 5 and 6)
Assay type: biochemical
Conditions: 50% inhibition of cathepsin D
// NB: equality with 6 µM counts as Not met; only IC50 strictly below is Met

structure=CCOc1cc(C=C2SC(=S)N(N(C)C)C2=O)cc(CSc2ccccc2)c1O assigned_category="Not met"
structure=CC(C)(C)c1cc(C=C2SC(=S)NC2=O)cc(CSc2ccccc2)c1O assigned_category=Met
structure=CCOc1cc(C=C2SC(=S)N(CC(=O)O)C2=O)cc(CSc2ccccc2)c1O assigned_category=Met
structure=CCOc1cc(C=C2SC(=S)NC2=O)cc(CSc2ccccc2)c1O assigned_category=Met
structure=CCOc1cc(C=C2SC(=S)N(C)C2=O)cc(CSc2ccccc2)c1O assigned_category="Not met"

###

System: blood glucose level
Assay: Hypoglycemic activity in obese diabetic mice (Table 1)
Assay type: in vivo, male viable yellow obese-diabetic mice
Conditions: Mus musculus, ip, 2 h, 50 mg/kg, intraperitoneal, 2 hrs; read-out: Percent of Initial Blood Glucose Level After 2 hrs.
Metric name: response vs control in vivo at 50 mg/kg (%)

compound=O=C1NC(=S)SC1=Cc1ccccc1[N+](=O)[O-] tgt="blood glucose level" metric_name="response vs control in vivo at 50 mg/kg" value=91
compound=CCCCOc1ccc(C=C2SC(=S)NC2=O)cc1OC tgt="blood glucose level" metric_name="response vs control in vivo at 50 mg/kg" value=61
compound=O=C1NC(=S)SC1=Cc1ccnc2ccccc12 tgt="blood glucose level" metric_name="response vs control in vivo at 50 mg/kg" value=90
compound=O=C1NC(=S)SC1=Cc1ccc2ccccc2c1 tgt="blood glucose level" metric_name="response vs control in vivo at 50 mg/kg" value=83
compound=O=C1NC(=S)SC1=Cc1c[nH]c2ccccc12 tgt="blood glucose level" metric_name="response vs control in vivo at 50 mg/kg" value=83
compound=O=C1NC(=S)SC1=Cc1ccc(Oc2ccccc2)cc1 tgt="blood glucose level" metric_name="response vs control in vivo at 50 mg/kg" value=79
compound=COc1cc(C=C2SC(=S)NC2=O)ccc1O tgt="blood glucose level" metric_name="response vs control in vivo at 50 mg/kg" value=76
compound=CC(C)(C)c1cc(C=C2SC(=S)N(CC(=O)O)C2=O)cc(C(C)(C)C)c1O tgt="blood glucose level" metric_name="response vs control in vivo at 50 mg/kg" value=73
compound=CCCOc1cc(C=C2SC(=S)NC2=O)ccc1OCC tgt="blood glucose level" metric_name="response vs control in vivo at 50 mg/kg" value=75
compound=COc1cccc(C=C2SC(=S)NC2=O)c1OC tgt="blood glucose level" metric_name="response vs control in vivo at 50 mg/kg" value=78
compound=CCOc1ccc(C=C2SC(=S)NC2=O)cc1O tgt="blood glucose level" metric_name="response vs control in vivo at 50 mg/kg" value=79
compound=COc1ccc(C=C2SC(=S)NC2=O)cc1O tgt="blood glucose level" metric_name="response vs control in vivo at 50 mg/kg" value=78
compound="CCCCOc1ccc(CC2SC(=S)NC2=O)cc1OC (centres unmarked)" tgt="blood glucose level" metric_name="response vs control in vivo at 50 mg/kg" value=76
compound=CCOc1cc(C=C2SC(=S)NC2=O)ccc1OC tgt="blood glucose level" metric_name="response vs control in vivo at 50 mg/kg" value=67
compound=O=C1NC(=S)SC1=Cc1ccc2c(c1)OCO2 tgt="blood glucose level" metric_name="response vs control in vivo at 50 mg/kg" value=96
compound=CS(=O)(=O)Nc1cccc(C=C2SC(=S)NC2=O)c1 tgt="blood glucose level" metric_name="response vs control in vivo at 50 mg/kg" value=82
compound=COc1ccccc1C=C1SC(=S)NC1=O tgt="blood glucose level" metric_name="response vs control in vivo at 50 mg/kg" value=80

###

Test system: blood glucose level
Experiment: Hypoglycemic activity in obese diabetic mice (Table 1)
Assay type: in vivo, male viable yellow obese-diabetic mice
Conditions: Mus musculus, ip, 2 h, 25 mg/kg, intraperitoneal, 2 hrs; read-out: Percent of Initial Blood Glucose Level After 2 hrs.
Metric name: response vs control in vivo at 25 mg/kg

compound="CCCCCOc1ccc(C=C2SC(=S)NC2=O)cc1OC [Example 45]" metric_name="response vs control in vivo at 25 mg/kg" value=93%
compound="CCCCOc1ccc(C=C2SC(=S)NC2=O)cc1OCC [Example 56]" metric_name="response vs control in vivo at 25 mg/kg" value=81%
compound="CCOc1ccc(C=C2SC(=S)NC2=O)cc1OC [Example 48]" metric_name="response vs control in vivo at 25 mg/kg" value=87%
compound="CCOc1ccc(C=C2SC(=S)NC2=O)cc1OCC [Example 38]" metric_name="response vs control in vivo at 25 mg/kg" value=69%

###

Entries and their response vs control in vivo at 200 mg/kg values follow.
System: blood glucose level
Test: Hypoglycemic activity in normal fed rats (Table 2)
Assay type: in vivo, male Sprague Dawley rats
Settings: Rattus norvegicus; 200 mg/kg, oral, 5 hrs; read-out: Percent of Initial Blood Glucose Level After 5 hrs.
Method: The procedure used in this test system is described below. The desired dose level of each test formulation was administered to four rats by oral […] at the beginning of the experiment. Blood glucose levels were determined immediately before the first dose and at 3 and 5 hours thereafter by an enzymatic procedure employing glucose oxidase and peroxidase coupled with a chromogenic oxygen acceptor. A mean was taken of the 4 values obtained before the first dose and at the 3 and 5 hour intervals.
Metric name: response vs control in vivo at 200 mg/kg (%)

compound="CCCCCOc1ccc(CC2SC(=S)NC2=O)cc1OC (centres unmarked)" metric_name="response vs control in vivo at 200 mg/kg" readout_units=% value=89
compound=CCCOc1ccc(C=C2SC(=S)NC2=O)cc1 metric_name="response vs control in vivo at 200 mg/kg" readout_units=% value=82
compound="CCCCCOc1ccc(CC2SCNC2=O)cc1OC (centres unmarked)" metric_name="response vs control in vivo at 200 mg/kg" readout_units=% value=88
compound=CCOc1ccc(C=C2SC(=S)NC2=O)cc1OCC metric_name="response vs control in vivo at 200 mg/kg" readout_units=% value=74
compound=CCCCCOc1ccc(C=C2SCNC2=O)cc1OC metric_name="response vs control in vivo at 200 mg/kg" readout_units=% value=86
compound=CCCCCOc1ccc(C=C2SC(=S)NC2=O)cc1 metric_name="response vs control in vivo at 200 mg/kg" readout_units=% value=73
compound=Cc1cc(C=C2SC(=S)NC2=O)cc(C)c1O metric_name="response vs control in vivo at 200 mg/kg" readout_units=% value=53
compound=CCCOc1ccc(C=C2SC(=S)NC2=O)cc1OCC metric_name="response vs control in vivo at 200 mg/kg" readout_units=% value=98
compound=COc1cc(C=C2SC(=S)NC2=O)cc(OC)c1OC metric_name="response vs control in vivo at 200 mg/kg" readout_units=% value=68
compound=CCCCCCCOc1ccc(C=C2SC(=S)NC2=O)cc1OC metric_name="response vs control in vivo at 200 mg/kg" readout_units=% value=92
compound=CCCCCCOc1ccc(C=C2SC(=S)NC2=O)cc1OC metric_name="response vs control in vivo at 200 mg/kg" readout_units=% value=89
compound=O=C1NC(=S)SC1=Cc1ccncc1 metric_name="response vs control in vivo at 200 mg/kg" readout_units=% value=79
compound=COc1cccc(C=C2SC(=S)NC2=O)c1OC metric_name="response vs control in vivo at 200 mg/kg" readout_units=% value=100
compound=COc1cccc(C=C2SC(=S)NC2=O)c1 metric_name="response vs control in vivo at 200 mg/kg" readout_units=% value=100
compound=CCOc1cc(C=C2SC(=S)NC2=O)ccc1OC metric_name="response vs control in vivo at 200 mg/kg" readout_units=% value=100
compound=COc1ccccc1C=C1SC(=S)NC1=O metric_name="response vs control in vivo at 200 mg/kg" readout_units=% value=100
compound=CCCCCCCCOc1ccc(C=C2SC(=S)NC2=O)cc1OC metric_name="response vs control in vivo at 200 mg/kg" readout_units=% value=88
compound=COc1cc(C=C2SC(=S)NC2=O)cc(OC)c1O metric_name="response vs control in vivo at 200 mg/kg" readout_units=% value=52
compound=CCOc1cc(C=C2SC(=S)NC2=O)ccc1O metric_name="response vs control in vivo at 200 mg/kg" readout_units=% value=96
compound=CCCCCOc1ccc(C=C2SC(=S)N(C)C2=O)cc1OC metric_name="response vs control in vivo at 200 mg/kg" readout_units=% value=91
